Where do these numbers come from? They come from PubChem BioAssay (NCI).

Measured growth inhibition, listed per entry.
experiment-description: NCI Yeast Anticancer Drug Screen. Data for the mlh1 rad18 strain (AID 175)
run-parameters: S. cerevisiae mlh1 rad18 strain growth inhibition; at 50.0 µM (retest, dose inferred, filed as 5.0); stronger effect = higher value
This is part of a sample that, as a whole, favours compounds with a hit. Of some 79,000 tested, about 15% had one in any assay.
endpoint: growth inhibition (%)

>  <molecule>
CCNc1cc2c3c(c1)CCCN3CCC2

>  <value>
51

$$$$
>  <molecule>
O=C1c2cccc3cccc(c23)C1(Br)Br

>  <value>
99

$$$$
>  <molecule>
Cc1c(N)nc(C(CC(N)=O)NCC(N)C(N)=O)nc1C(=O)NC(C(=O)NC(C)C(O)C(C)C(=O)NC(C(=O)NCCc1nc(-c2nc(C(=O)NCCCNCCCc3ccccn3)cs2)cs1)C(C)O)C(OC1OC(CO)C(O)C(O)C1OC1OC(CO)C(O)C(OC(N)=O)C1O)c1cnc[nH]1 (centres undefined)

>  <value>
99

$$$$
>  <molecule>
Cc1ccc(S(=O)(=O)N/N=C/c2oc(-c3cccc([N+](=O)[O-])c3)c(-c3cccc([N+](=O)[O-])c3)c2[N+](=O)[O-])cc1

>  <value>
57

$$$$
>  <molecule>
C=CCc1cc(C(=O)OCC)cc(OC)c1O

>  <value>
97

$$$$
>  <molecule>
CCCCCCCCCCCCCCCC(=O)NCC[N+](C)(CC)CC

>  <value>
7

$$$$
>  <molecule>
CC(O)c1c2c(cc3c1CC1(C3)Cc3cc4c(c(C(C)O)c3C1)CCC4)CCC2 (centres undefined)

>  <value>
97

$$$$
>  <molecule>
COc1cccc2c1C(=O)c1c(O)c3c(c(O)c1C2=O)C[C@@](O)(C(=O)CO)C[C@@H]3OC1CC(N(C)C)C(O)C(C)O1 (some centres undefined)

>  <value>
94

$$$$
>  <molecule>
O=c1oc2c(-c3ccccc3)cccc2c(O)c1-c1ccccc1

>  <value>
81

$$$$
>  <molecule>
CCOC(=O)c1ccc(O)c(OC)c1

>  <value>
0

$$$$
>  <molecule>
C/C(=N/NC(=S)NCc1ccccc1)c1ncccn1

>  <value>
98

$$$$
>  <molecule>
O=C(/C(=N/O)[n+]1ccccc1)c1ccccc1

>  <value>
53

$$$$
>  <molecule>
C=Cc1nc(N)nc(-c2ccc(C)cc2)n1

>  <value>
96

$$$$
>  <molecule>
Clc1ccc(CSCCc2ccncc2)cc1Cl

>  <value>
97

$$$$
>  <molecule>
Cn1nc2c(c(Cl)c1=O)Nc1ccccc1O2

>  <value>
-14

$$$$
>  <molecule>
CCCCCCCCCCCCCCCCCCNC(=S)/N=C/c1c(O)cc(C)oc1=O

>  <value>
29

$$$$
>  <molecule>
c1ccc(CCNCc2ccco2)nc1

>  <value>
-3

$$$$
>  <molecule>
CN[C@@H](Cc1cccc2ccccc12)C(=O)N[C@@H](CC(C)C)B(O)O

>  <value>
60

$$$$
>  <molecule>
O=[n+]1c2c(n([O-])c3ccc4ccccc4c31)-c1cccc3cccc-2c13

>  <value>
1

$$$$
